Origin of values: patent US7928135B2

# Test system: HSP-90 (heat shock protein 90)
# Test Protocol: Determination of affinity for HSP-90 (elution from purine affinity column, SDS-PAGE densitometry)
# Format: binding
# Set-up: key: +++: very high; ++: high; +: moderate
# Stated Conditions: elution of HSP-90 from purine affinity column with 20, 100 and 500 μM test compound
Parameter Measured: relative binding affinity to HSP-90

Illustrative cases are given below, each with its answer.
- Molecule: "Cc1nn(-c2ccc(C(N)=O)c(NC3CN(S(C)(=O)=O)C3)c2)c2c1C(=O)CC(C)(C)C2"
  relative binding affinity to HSP-90: "++"
- Molecule: "Cc1cc2c(n1-c1ccc(C(N)=O)c(-n3ccnc3)c1)CC(C)(C)CC2=O"
  relative binding affinity to HSP-90: "+"
- Molecule: "Cc1nn(-c2ccc(C(N)=O)c(NCCCN3CCCC3=O)c2)c2c1C(=O)CC(C)(C)C2"
  relative binding affinity to HSP-90: "++"
- Molecule: "COCCNc1cc(-n2c(C)c(C)c3c2CCCC3=O)ccc1C(N)=O"
  relative binding affinity to HSP-90: "++"

Continue with the next molecule.
Qu. Name the reported relative binding affinity to HSP-90 value associated with the molecule CC1(C)CC(=O)c2c(C(F)(F)F)nn(-c3ccc(C(N)=O)c(NCCNS(C)(=O)=O)c3)c2C1
Ans. ++

----------
# Test system: HSP-90 (heat shock protein 90)
# Test Protocol: Determination of affinity for HSP-90 (elution from purine affinity column, SDS-PAGE densitometry)
# Type: binding
# Set-up: key: +++: very high; ++: high; +: moderate
# Stated Conditions: elution of HSP-90 from purine affinity column with 20, 100 and 500 μM test compound
Parameter Measured: relative binding affinity to HSP-90

Illustrative cases are given below, each with its answer.
- Compound: "CCc1cc(-n2nc(C)c3c2CC(C)(C)CC3=O)ccc1C(N)=O [Compound 102]"
  Measurement Target: "HSP-90 (heat shock protein 90)"
  Parameter Measured: "relative binding affinity to HSP-90"
  Value Measured: "++"
- Compound: "C=CCNc1cc(-n2c(C)c(C)c3c2CCCC3=O)ccc1C(N)=O [Compound 91]"
  Measurement Target: "HSP-90 (heat shock protein 90)"
  Parameter Measured: "relative binding affinity to HSP-90"
  Value Measured: "++"
- Compound: "COc1cc(Nc2cc(-n3ccc4c3CCCC4=O)ccc2C(N)=O)cc(OC)c1OC [Compound 86]"
  Measurement Target: "HSP-90 (heat shock protein 90)"
  Parameter Measured: "relative binding affinity to HSP-90"
  Value Measured: "++"
- Compound: "Cc1cn(-c2ccc(C(N)=O)c(NC3CCc4ccccc43)c2)c2c1C(=O)CC(C)(C)C2 (stereo not shown) [Compound 54]"
  Measurement Target: "HSP-90 (heat shock protein 90)"
  Parameter Measured: "relative binding affinity to HSP-90"
  Value Measured: "+"
- Compound: "CCCCSc1cc(-n2nc(C)c3c2CC(C)(C)CC3=O)ccc1C(N)=O [Compound 103]"
  Measurement Target: "HSP-90 (heat shock protein 90)"
  Parameter Measured: "relative binding affinity to HSP-90"
  Value Measured: "++"
- Compound: "Cc1cn(-c2ccc(C(N)=O)c(N3CCN(C)CC3)c2)c2c1C(=O)CC(C)(C)C2 [Compound 99]"
  Measurement Target: "HSP-90 (heat shock protein 90)"
  Parameter Measured: "relative binding affinity to HSP-90"
  Value Measured: "++"

Continue with the next compound.
Qu. Name the reported relative binding affinity to HSP-90 value associated with the compound Cc1cc2c(n1-c1ccc(C(N)=O)c(Nc3ccc(Cl)cc3)c1)CC(C)(C)CC2=O [Compound 73]
Ans. +
